- Organism: Rattus norvegicus
- measurement-description: Effective concentration was measured for the release of accumulated [3H]dopamine from chopped striatum of rat
- Type: functional, organism-based
measurement-name: pEC50
Give bare numbers, as −log10 of the molar value.

1. NC1CC2CCC1c1ccccc12 (stereo in doubt; 1a) :: 3.72
2. NC1CC2CCC1c1ccccc12 (stereo in doubt; 2a) :: 3.17
3. CNC1CC2CC1c1ccccc12 (stereo in doubt; 3b) :: 3.57

Next up:
### Prompt I would be grateful if you could share the reported pEC50 for CNC1CC2CCC1c1ccccc12 (stereo in doubt; 1b) .
### Response 3.73

* * *

- Organism: Rattus norvegicus
- measurement-description: Inhibitory concentration against uptake of [3H]NE into chopped cerebral cortical tissue from rat brain
- Assay type: functional, organism-based
- assay-setup: Rattus norvegicus, Brain
measurement-name: pIC50
Answers are plain numbers, as −log10 of the molar value.

The following compounds have reported results that may help.
1. N[C@H]1CC2C[C@@H]1c1ccccc12 :: 4.00
2. C[C@H](N)Cc1ccccc1 [DEXTROAMPHETAMINE] :: 6.70
3. C[C@@H](N)Cc1ccccc1 [LEVAMFETAMINE] :: 6.30

Attention now turns to another entry.
### Prompt What does the data say about its pIC50? Entry: `N[C@@H]1CC2C[C@@H]1c1ccccc12`
### Response 5.96

* * *

- Organism: Rattus norvegicus
- measurement-description: Effective concentration was measured for the release of accumulated [3H]NE from chopped cortex of rat
- Assay type: functional, organism-based
I'd be grateful if you could share measured EC50 for these entries.
Numbers only, in µM.

Previously resolved entries follow.
1) CNC1CC2CCC1c1ccccc12 (stereo in doubt; 1b) :: 178
2) CNC1CC2CC1c1ccccc12 (stereo in doubt; 3b) :: 450
3) NC1CC2CCC1c1ccccc12 (stereo in doubt; 1a) :: 147

### Prompt Quick one: EC50 of NC1CC2CCC1c1ccccc12 (stereo in doubt; 2a) ?
### Response 1000

From: ChEMBL document CHEMBL1121447
